All figures here come from ChEMBL document CHEMBL5512633.

Assay: Stability in mouse plasma assessed as compound remaining measured after 2 hrs by LC-MS/MS analysis
Format: ADME, cell-free
Details: read-out: Stability
Reported Property: remaining at 2 h
Give the figure together with its unit, number first.

Here are 3 compounds together with their reported answers.
{"columns": ["Structure", "remaining at 2 h"],
 "data": [
  ["COc1cc2c(N3CCCCC3)nc(NCc3ccc(Br)cc3)nc2cc1OC1CCCC1", "92.6%"],
  ["COc1cc2c(N3CCCCC3)nc(NC(=O)c3ccc(F)cc3)nc2cc1OC1CCCC1", "44.3%"],
  ["CC(C)[N+](C)(CCOC(=O)C1c2ccccc2Oc2ccccc21)C(C)C", "37.2%"]
]}

We next turn to a different compound, shown below.
IN: Please look up its remaining at 2 h: COc1cc2c(N3CCCCC3)nc(NCc3ccc(C(C)(C)C)cc3)nc2cc1OC1CCCC1
OUT: 44%
